Reported kon values follow for various binders
Biological target: T1, human serum albumin (human, UniProt P02768 25-609)
T1 construct: mature; Bought purified serum albumin; also called HSA; Human albumin
Assay: SPR, Fab captured; albumin taken as HSA;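 further: antibody held on a capture surface, albumin injected for 3 min association then dissociation followed, signals corrected using a blank reference flow cell and buffer-only injections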
READOUT TYPE: kon (M⁻¹ s⁻¹)

• CA645 gL4gH43 Fab (Fab, V domains shown, Fab: human gamma1 CH1, human kappa (Km3); Kabat numbering) VH: EVQLLESGGGLVQPGGSLRLSCAVSGIDLSNYAINWVRQAPGKGLEWIGIIWASGTTFYATWAKGRFTISRDNSKNTVYLQMNSLRAEDTAVYYCARTVPEYSTAPYFDLWGQGTLVTVSS VL: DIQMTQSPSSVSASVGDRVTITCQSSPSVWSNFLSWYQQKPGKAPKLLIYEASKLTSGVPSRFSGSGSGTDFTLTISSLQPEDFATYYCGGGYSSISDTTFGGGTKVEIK = 52900
• CA645 gL34gH5 Fab (Fab, V domains shown, Fab: human gamma1 CH1, human kappa (Km3); Kabat numbering) VH: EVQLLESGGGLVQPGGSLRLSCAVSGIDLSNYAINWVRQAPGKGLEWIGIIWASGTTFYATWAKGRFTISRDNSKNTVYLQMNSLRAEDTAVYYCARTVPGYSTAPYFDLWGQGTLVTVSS VL: DIQMTQSPSSVSASVGDRVTITCQSSPSVWSNFLSWYQQKPGKAPKLLIYEASKLTSGVPSRFSGSGSGTDFTLTISSLQPEDFATYYCGGGYTSISDTTFGGGTKVEIK = 55800
